Experiment: qHTS for Inhibitors of human tyrosyl-DNA phosphodiesterase 1 (TDP1): qHTS in cells in presence of CPT; further: nearly all actives have a fitted effect of over 55% in size
Details: chicken DT40 Tdp1-/-;hTDP1 cells + 20 nM CPT, ATP luminescence, 48 h; series mostly up to 46.2 µM
Procedure: Human tyrosyl-DNA phosphodiesterase 1 (TDP1) is a novel repair gene, and we propose to use it as a new target for anticancer drug development. […] For the primary screen, Tdp1-/-;hTDP1 cells will be exposed to small molecules in the presence or absence of CPT, and their growth kinetics will be evaluated after 48 hours by measuring ATP activity. […] The hit compounds will then be evaluated in the presence or absence of CPT using Tdp1-/- cells. […]
About 50,000 (12%) of roughly 420,000 compounds were called active. Not shown: some 26% with an inconclusive outcome. The call rests on the fitted dose curve; in most records, active means well fitted inhibition curve with a large enough effect; inconclusive means small, poorly fitted or top-dose-only effect; inactive means flat fitted curve, though single readings scatter. For the sample, actives were picked, then their nearest neighbours and some compounds at random.
Hello, when you answer, please use one of the following outcomes: active, inactive

>  <compound>
CCOC(=O)C1CCCN(CC(=O)Nc2cc(C)c3c(=O)oc4ccccc4c3n2)C1 (stereo not drawn)

>  <cat>
inactive

$$$$
>  <compound>
Cc1ccccc1-n1nnnc1SCCCC(=O)c1ccc(F)cc1

>  <cat>
inactive

$$$$
>  <compound>
Nc1nc(O)c(CC(=O)O)s1

>  <cat>
inactive

$$$$
>  <compound>
CCc1ccccc1N1C(=O)C2C3CC(=O)C(c4ccccc43)C2C1=O (stereo not drawn)

>  <cat>
inactive

$$$$
>  <compound>
O=C(c1ccc(NS(=O)(=O)c2ccc3[nH]c(=O)[nH]c3c2)cc1)N1CCCCC1

>  <cat>
inactive

$$$$
>  <compound>
COc1ccccc1/C=C/CN1CCC(CO)(Cc2ccccc2)CC1

>  <cat>
inactive

$$$$
>  <compound>
CCOC(=O)/C(C#N)=C/c1cn(CCC(=O)O)nc1-c1ccc(Br)cc1

>  <cat>
inactive

$$$$
>  <compound>
CCCn1c(N)c(C(=O)CSc2nnc3n2CCCCC3)c(=O)[nH]c1=O

>  <cat>
inactive

$$$$

[Q] # outcome recorded in this test, key = `COc1ccc2cc(S(=O)(=O)Nc3ccccn3)ccc2c1`
[A] inactive

[Q] So what was the verdict on COc1cccc(CNC(=O)CCN2C(=S)NC(C)(C)CC2C)c1 (stereo not drawn) in this test?
[A] inactive

[Q] Tell me the assay call for `COc1ccc(S(=O)(=O)N2CCOCC2)cc1NC(=O)CSc1ncnc2ccccc12` please.
[A] inactive

[Q] Which outcome did this test record for the compound `O=C(O)/C=C/c1cn(Cc2ccccc2)nc1-c1cccs1` ?
[A] inactive

[Q] Which result was noted for this compound in the test: `Cc1nc(SCC(=O)Nc2cc(C)on2)c2c(C)c(C)sc2n1`
[A] inactive

[Q] Query: recorded result category for `CS(=O)(=O)Nc1ccccc1N=C(c1ccccc1)c1ccccc1` in this test
[A] inactive

[Q] Dear colleague, could you share the recorded outcome for `O=C(c1cc(COc2ccc(F)cc2F)on1)N1CCOCC1` when you have a moment?
[A] inactive

[Q] Any idea what this test logged for O=C(NC1CC1)C1CCCN(C(=O)NC2CCCCC2)C1 (stereo not drawn) ?
[A] inactive

[Q] # fetch the recorded call for O=C(CCN1CCCO1)N1CCCC(N2CCN(c3cccc(C(F)(F)F)c3)CC2)C1 (stereo not drawn) here
[A] inactive

[Q] Which outcome was assigned to `Cc1csc(SCC(=O)Nc2ccc(C)c(S(=O)(=O)N(C)C)c2)n1` in this test?
[A] inactive

[Q] Which outcome was entered for the compound `Cc1cc(NC(=O)CS(=O)(=O)c2cn(C)c3ccccc23)no1` in this test?
[A] inactive

[Q] What did this assay record as the result for `Cc1nc2sc(C)c(C)n2c(=O)c1S(=O)(=O)NCCc1ccc(Cl)cc1` ?
[A] inactive

[Q] Tell me the recorded outcome of this test for `COc1cc(NS(=O)(=O)c2ccc3ccccc3c2)c2ncccc2c1` .
[A] active

[Q] Entry CCOC(=O)CC1C(=O)NCCN1C(=O)COc1ccc(Br)cc1C (stereo not drawn) : call = ?
[A] inactive

[Q] Tell me the assay call for `CCOc1ccc(OCC)c(NS(=O)(=O)c2ccc3[nH]c(=O)ccc3c2)c1` please.
[A] inactive
